Target: T1, full-length human IL-36R on cells (human, UniProt Q9HB29 20-575)
T1 sequence (looked up): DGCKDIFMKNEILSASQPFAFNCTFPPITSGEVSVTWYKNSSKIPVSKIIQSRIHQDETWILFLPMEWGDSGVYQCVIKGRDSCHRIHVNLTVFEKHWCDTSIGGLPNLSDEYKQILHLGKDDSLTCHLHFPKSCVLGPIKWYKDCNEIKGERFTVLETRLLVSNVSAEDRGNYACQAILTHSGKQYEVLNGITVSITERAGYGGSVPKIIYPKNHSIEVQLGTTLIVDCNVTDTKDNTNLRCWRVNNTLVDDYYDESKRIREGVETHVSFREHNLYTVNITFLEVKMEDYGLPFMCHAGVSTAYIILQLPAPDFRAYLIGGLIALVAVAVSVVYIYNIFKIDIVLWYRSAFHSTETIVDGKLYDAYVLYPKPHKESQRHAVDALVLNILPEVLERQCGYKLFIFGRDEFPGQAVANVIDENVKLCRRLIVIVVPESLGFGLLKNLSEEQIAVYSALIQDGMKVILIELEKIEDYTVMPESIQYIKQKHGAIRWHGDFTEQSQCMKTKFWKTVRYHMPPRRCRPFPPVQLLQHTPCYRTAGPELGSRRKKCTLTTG
Assay: cell-based or functional assay
Recorded IC50 [M], NFκB-luciferase, 20 pM hIL-36α values for a group of binders are listed next.

H4H14699P2 (antibody, human IgG4 S228P, kappa, V domains shown, Fully human anti-IL-36R antibody) VH: EVQLVESGGGLVQPGRSLRLSCAASGFTFDDYAIHWVRQAPGKGLEWVSVISWNSDIIGYADSVKGRFTVSRDNAKNSLYLQMNSLRTEDTALYYCAKGYNWNFFDYWGQGTLVTVSS VL: EIVLTQSPATLSLSPGERATLSCRASQSVSSYLAWYQQKPGQAPRLLIYNAANRATDIPARFSGSGSGTDFTLTISSLEPEDFAVYYCQQRSNWPLTFGGGTKVEIKR; 1.3e-10 M
H4H14706P2 (antibody, human IgG4 S228P, kappa, V domains shown) VH: EVQLVESGGGLVQPGRSLRLSCTASGFTFDDYAIHWVRQSPGKGLEWVSVISWNSDVIGYADSVKGRFTISRDNAKNSLYLQMNSLRAEDTALYYCAKGYNWNFFDYWGQGTLVTVSS VL: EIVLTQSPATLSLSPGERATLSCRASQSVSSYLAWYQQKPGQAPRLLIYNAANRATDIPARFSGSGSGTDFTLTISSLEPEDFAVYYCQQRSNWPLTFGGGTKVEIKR; 1e-10 M

Now let's try a different one.
Task item: Give the value of IC50 [M], NFκB-luciferase, 20 pM hIL-36α reported for the following: H4H14728P (antibody, human IgG4 S228P, kappa, V domains shown) VH: QVQLQESGPGLVKPSQTLSLTCTVSGGSISSADYYWSWIRQHPGKGLEWIGSIYYTGSTYYNPSLKSRLTISIDTSENQFSLKLTSLTAADTAVYYCASEEANWGSHFDSWGQGTLVTVSS VL: DIQMTQSPSSLSASVGDRVTITCRASQSIDNFLNWYQQKPGKAPKLLIYAASSLQSGVPSRFSGSGSGTDFTLTISSLQPEDFASYYCQHSHSAHPITFGQGTRLEIKR
Reply: 9.7e-10 M
